- Test conditions: 328.15 K; 100 kPa; Liquid; Vibrating tube method
Quantity measured: mass density (kg/m3)
Answers are plain numbers, in kg/m3.

Example molecules with recorded mass density:
- Molecule: "CC[NH+](C)C.O=C([O-])C(F)(F)F [N,N-dimethyl-N-ethylammonium trifluoroacetate]"
  Assay value: 1182.54
- Molecule: "CC[NH+](CC)CC.O=C([O-])c1ccccc1 [triethylammonium benzoate]"
  Assay value: 1077.68
- Molecule: "CC(=O)O.CCN(CC)CC [triethylammonium acetate]"
  Assay value: 986.96
- Molecule: "CC[NH+](CC)CC.O=C([O-])C(F)(F)F [triethylammonium trifluoroacetate]"
  Assay value: 1136.91
- Molecule: "CCC(=O)[O-].OCC[NH+](CCO)CCO [triethanolammonium propanoate]"
  Assay value: 1118.01

Provide mass density values for the following items, in order.
1. CC[NH2+]CC.O=S(=O)([O-])O [diethylammonium hydrogen sulfate]
2. CC[NH+](CC)CC.O=S(=O)([O-])C(F)(F)F [triethylammonium trifluoromethanesulfonate]
3. O=C(O)c1ccccc1O.OCCN(CCO)CCO [triethanolammonium salicylate]
4. CCN(CC)CC.O=C(O)c1ccccc1O [triethylammonium salicylate]

1360.62
1240.48
1248.43
1076.35

Provide mass density values for the following items, in order.
1. CC[NH2+]CC.O=C([O-])C(F)(F)F [diethylammonium trifluoroacetate]
2. CC[NH+](CC)CC.CS(=O)(=O)[O-] [triethylammonium methanesulfonate]
3. O=S(=O)(O)O.OCCN(CCO)CCO [triethanolammonium hydrogen sulfate]

1154.74
1097.26
1418.8

====

- Test conditions: 343.15 K; 100 kPa; Liquid; Vibrating tube method
Quantity measured: mass density (kg/m3)
Answers are plain numbers, in kg/m3.

Example compounds with recorded mass density:
- Compound: "CCC(=O)[O-].OCC[NH+](CCO)CCO [triethanolammonium propanoate]"
  mass density / kg/m3: 1108.5
- Compound: "O=C(O)c1ccccc1O.OCCN(CCO)CCO [triethanolammonium salicylate]"
  mass density / kg/m3: 1239.42
- Compound: "CC[NH+](CC)CC.O=C([O-])C(F)(F)F [triethylammonium trifluoroacetate]"
  mass density / kg/m3: 1124.67
- Compound: "CCN(CC)CC.O=P(O)(O)O [triethylammonium dihydrogen phosphate]"
  mass density / kg/m3: 1327.08

Provide mass density values for the following items, in order.
1. CC[NH2+]CC.O=C([O-])C(F)(F)F [diethylammonium trifluoroacetate]
2. CC[NH2+]CC.CS(=O)(=O)[O-] [diethylammonium methanesulfonate]
3. CC[NH+](C)C.O=C([O-])C(F)(F)F [N,N-dimethyl-N-ethylammonium trifluoroacetate]
4. CC[NH+](CC)CC.O=S(=O)([O-])C(F)(F)F [triethylammonium trifluoromethanesulfonate]

1. 1142.62
2. 1111.06
3. 1169.9
4. 1228.65

====

- Test conditions: 293.15 K; 100 kPa; Liquid; Vibrating tube method
What mass density was measured for each of the following?
Answers are plain numbers, in kg/m3.

Example molecules with recorded mass density:
- Molecule: "CC[NH+](CC)CC.O=C([O-])c1ccccc1 [triethylammonium benzoate]"
  Quantity measured: "mass density"
  Assay value: 1101.47
- Molecule: "CC[NH2+]CC.O=S(=O)([O-])O [diethylammonium hydrogen sulfate]"
  Quantity measured: "mass density"
  Assay value: 1382.76
- Molecule: "CC[NH+](CC)CC.CS(=O)(=O)[O-] [triethylammonium methanesulfonate]"
  Quantity measured: "mass density"
  Assay value: 1120.47
- Molecule: "CC[NH+](C)C.O=C([O-])C(F)(F)F [N,N-dimethyl-N-ethylammonium trifluoroacetate]"
  Quantity measured: "mass density"
  Assay value: 1212.41
- Molecule: "CCC(=O)[O-].OCC[NH+](CCO)CCO [triethanolammonium propanoate]"
  Quantity measured: "mass density"
  Assay value: 1139.53

Provide mass density values for the following items, in order.
1. CC(=O)O.CCN(CC)CC [triethylammonium acetate]
2. CCN(CC)CC.O=C(O)c1ccccc1O [triethylammonium salicylate]
3. CC[NH+](CC)CC.O=C([O-])C(F)(F)F [triethylammonium trifluoroacetate]

[1013.29, 1099.07, 1165.69]

Give the measured mass density of CC[NH+](CC)CC.O=S(=O)([O-])C(F)(F)F [triethylammonium trifluoromethanesulfonate] .
1268.63

// provenance: the NIST ThermoML archive (doi:10.1021/acs.jced.8b00725)
